Test system: HeLa (human cervical carcinoma)
Method notes: MTT cytotoxicity assay, HeLa
Type: cell-based
Measurement context: MTT, 72 h; cutoff 10 µM; read-out: IC50 HeLa
Attribute measured: IC50
Answer with the figure and its unit, nothing else.

Could you share which IC50 value was measured for `N#CC(=O)NCCCOc1c(Br)cc(CCNC=C2C(=O)C=CC2=O)cc1Br` ?
2300 nM

----------
System: HeLa (human cervical carcinoma)
Method notes: MTT cytotoxicity assay, HeLa
Assay type: cell-based
Measurement context: Homo sapiens, HeLa, 72 h, read-out: IC50 HeLa
pIC50: −log10 of the molar value.
Attribute measured: pIC50

1) CCOC(=O)NCCCOc1c(Br)cc(CCN)cc1Br	≤ 5.00
2) N#CC(=O)NCCCOc1c(Br)cc(CCN)cc1Br	≤ 5.00

Could you share which pIC50 value was measured for `NCCCOc1c(Br)cc(CCN)cc1Br` ?
≤ 5.00
